Sourced from patent US20250313625A1

Examples of binders with documented kon follow.
- target.of.assay: T1, human LAG3 (form used in Octet, Biacore and HDX-MS not given) (human, UniProt P18627 23-450, limits assumed)
- T1 sequence (looked up): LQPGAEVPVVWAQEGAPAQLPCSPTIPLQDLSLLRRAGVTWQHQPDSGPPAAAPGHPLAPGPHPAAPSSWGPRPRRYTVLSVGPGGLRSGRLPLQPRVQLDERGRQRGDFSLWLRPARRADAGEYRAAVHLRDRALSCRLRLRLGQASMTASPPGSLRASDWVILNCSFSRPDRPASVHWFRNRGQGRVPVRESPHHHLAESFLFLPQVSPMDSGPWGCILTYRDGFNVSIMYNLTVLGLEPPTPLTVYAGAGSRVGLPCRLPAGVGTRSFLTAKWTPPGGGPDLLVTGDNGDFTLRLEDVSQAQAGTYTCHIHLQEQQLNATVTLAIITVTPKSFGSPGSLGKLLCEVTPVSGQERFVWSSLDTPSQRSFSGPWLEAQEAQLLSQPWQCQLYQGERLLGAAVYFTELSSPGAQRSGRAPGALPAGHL
- procedure.text: BLI (Octet), 1:1 fit
Your answer should be a plain number; it is taken to be in M⁻¹ s⁻¹.

Request: Could you share which kon value was measured for hu029.55 (antibody, V domains shown, humanized from 029c) VH: QVQLVESGGGLVKPGGSLRLSCAASGFTFSSYAMSWIRQAPGKGLEWVSYVTSGGDYIYYADTVKGRFTISRDDAKNSLYLQMNSLRAEDTAVYYCTRVAYDYEWYFDVWGQGTLVTVSS VL: DIQMTQSPSSVSASVGDRVTITCKASQDVTTAVAWYQQKPGKAPKLLIYSASYRYTGVPSRFSGSGSGTDFTLTISSLQPEDFATYYCQQHDSSPWTFGQGTKLEIK ?
Result: 4.47e+06

Request: What do you get for hu029.55.S93Q (antibody, V domains shown) VH: QVQLVESGGGLVKPGGSLRLSCAASGFTFSSYAMSWIRQAPGKGLEWVSYVTSGGDYIYYADTVKGRFTISRDDAKNSLYLQMNSLRAEDTAVYYCTRVAYDYEWYFDVWGQGTLVTVSS VL: DIQMTQSPSSVSASVGDRVTITCKASQDVTTAVAWYQQKPGKAPKLLIYSASYRYTGVPSRFSGSGSGTDFTLTISSLQPEDFATYYCQQHDQSPWTFGQGTKLEIK ?
Result: 5.06e+06

Request: What do you get for hu029.53 (antibody, V domains shown, humanized from 029c) VH: QVQLVESGGGLVKPGGSLRLSCAASGFTFSSYAMSWIRQAPGKGLEWVAYVTSGGDYIYYADTVKGRFTISRDDAKNSLYLQMNSLRAEDTAMYYCTRVAYDYEWYFDVWGQGALVTVSS VL: DIQMTQSPSSVSASVGDRVTITCKASQDVTTAVAWYQQKPGKAPKLLIYSASYRYTGVPSRFSGSGSGTDFTLTISSLQPEDFATYYCQQHDSSPWTFGQGTKLEIK ?
Result: 4.38e+06
